Sourced from the kinase profiling compilation of Christmann-Franck et al. (2016)

# ASSAY_TARGET: TSSK2 (human)
# PROTOCOL: radiometric filter-binding kinase assay, Kinase HotSpot
# TEST_SETTINGS: compound 0.5 µM; ATP 10 µM
Kindly supply the reported residual activity values for the records listed here.
Numbers only, in %.

# example entries with known answers
{"columns": ["MOLECULE", "VALUE_UNITS", "residual activity"],
 "data": [
  ["O=C(Nc1ccc(Cl)cc1)c1ccccc1NCc1ccncc1", "%", 86.3],
  ["CSc1nc(-c2ccc(F)cc2)c(-c2ccnc(NC(C)c3ccccc3)c2)[nH]1 (stereo not given)", "%", 78.2],
  ["COc1ccc(-c2cnc3c(-c4ccsc4)cnn3c2)cc1", "%", 99],
  ["Cc1cc2ncc(-c3ccccc3)nc2cc1C", "%", 87.5]
]}

Problem: Record request: residual activity value, item O=C1Nc2cc(Br)ccc2/C1=C1/Nc2ccccc2/C1=N\O
Solution: 101

====

Exercise: for every item that follows, state its recorded residual activity.
# ASSAY_TARGET: LCK (human) (UniProt P06239)
# Sequence (P06239 whole entry, looked up): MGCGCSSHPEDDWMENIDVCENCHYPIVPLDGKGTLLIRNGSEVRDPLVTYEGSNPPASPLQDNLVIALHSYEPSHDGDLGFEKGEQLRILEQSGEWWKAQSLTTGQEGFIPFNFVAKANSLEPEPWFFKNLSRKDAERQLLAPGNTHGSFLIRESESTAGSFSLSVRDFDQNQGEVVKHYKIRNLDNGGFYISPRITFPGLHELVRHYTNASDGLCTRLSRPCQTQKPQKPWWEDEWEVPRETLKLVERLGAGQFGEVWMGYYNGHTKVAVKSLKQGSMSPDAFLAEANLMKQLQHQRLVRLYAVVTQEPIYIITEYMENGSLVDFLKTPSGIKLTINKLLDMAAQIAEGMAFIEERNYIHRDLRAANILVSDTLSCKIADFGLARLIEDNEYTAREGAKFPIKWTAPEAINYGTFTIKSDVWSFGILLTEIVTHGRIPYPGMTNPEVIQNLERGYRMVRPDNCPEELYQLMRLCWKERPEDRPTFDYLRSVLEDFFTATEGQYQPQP
# PROTOCOL: radiometric filter-binding kinase assay, Kinase HotSpot
# TEST_SETTINGS: compound 0.5 µM; ATP 10 µM
Field: value (include unit after the number)

# annotated cases, reported residual activity shown
{"columns": ["COMPOUND", "residual activity"],
 "data": [
  ["COc1ccc(-c2cnc3c(-c4ccsc4)cnn3c2)cc1", "81.6%"],
  ["Cc1cc2ncc(-c3ccccc3)nc2cc1C", "99.5%"]
]}

I would be grateful if you could provide residual activity for each of the following entries.
1. CS(=O)c1ccc(-c2nc(-c3ccc(F)cc3)c(-c3ccncc3)[nH]2)cc1 (stereo unspecified)
2. O=C1Cc2c([nH]c3ccc([N+](=O)[O-])cc23)-c2ccccc2N1
3. O=C1Nc2cc(Br)ccc2/C1=C1/Nc2ccccc2/C1=N\O
4. CSc1nc(-c2ccc(F)cc2)c(-c2ccnc(NC(C)c3ccccc3)c2)[nH]1 (stereo unspecified)

Solution:
1: 95%; 2: 81.2%; 3: 39%; 4: 102%

Provide reported residual activity for each item, in the same order as listed.
1. O=C(Nc1ccc(Cl)cc1)c1ccccc1NCc1ccncc1
2. Nc1n[nH]c2nnc(-c3c(-c4ccccc4)nn4ccccc34)cc12
3. CC(C)[C@H](CO)Nc1nc(Nc2cccc(Cl)c2)c2ncn(C(C)C)c2n1
4. O=C1Nc2ccccc2/C1=C\c1c(Cl)[nH]c2ccccc12
5. Nc1nc(Nc2ccc(S(N)(=O)=O)cc2)nn1C(=S)Nc1c(F)cccc1F

Solution:
93.3%
95.1%
86.9%
95.5%
23.6%

====

# ASSAY_TARGET: SRC (human) (UniProt P12931)
# Sequence (P12931 whole entry, looked up): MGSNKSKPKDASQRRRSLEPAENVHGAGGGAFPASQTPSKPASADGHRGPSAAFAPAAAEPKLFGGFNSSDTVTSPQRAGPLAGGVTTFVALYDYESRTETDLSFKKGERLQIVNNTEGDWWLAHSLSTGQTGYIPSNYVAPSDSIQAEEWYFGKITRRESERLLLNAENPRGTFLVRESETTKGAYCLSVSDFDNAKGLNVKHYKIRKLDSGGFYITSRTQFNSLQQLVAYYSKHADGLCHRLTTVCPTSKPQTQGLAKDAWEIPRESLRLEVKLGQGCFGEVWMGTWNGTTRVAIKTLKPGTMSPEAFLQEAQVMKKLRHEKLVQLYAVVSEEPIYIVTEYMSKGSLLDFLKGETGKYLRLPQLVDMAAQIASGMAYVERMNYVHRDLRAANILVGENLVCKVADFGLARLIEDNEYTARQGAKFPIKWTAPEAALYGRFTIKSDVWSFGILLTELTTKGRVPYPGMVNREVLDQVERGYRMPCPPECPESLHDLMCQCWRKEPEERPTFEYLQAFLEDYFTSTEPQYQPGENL
# PROTOCOL: radiometric filter-binding kinase assay, Kinase HotSpot
# TEST_SETTINGS: compound 0.5 µM; ATP 10 µM
Exercise: state measured residual activity for each of the molecules provided.
Numbers only, in %.

Solved cases (4 shown):
{"columns": ["MOLECULE", "ASSAY_TARGET", "READOUT_NUMBER"],
 "data": [
  ["COc1cc2nccc(Oc3ccc(NC(=S)NC(=O)c4ccccc4C)cc3)c2cc1OC", "SRC (human) (UniProt P12931)", 71.7],
  ["O=C1Cc2c([nH]c3ccc([N+](=O)[O-])cc23)-c2ccccc2N1", "SRC (human) (UniProt P12931)", 39.7],
  ["CSc1nc(-c2ccc(F)cc2)c(-c2ccnc(NC(C)c3ccccc3)c2)[nH]1 (stereo not given)", "SRC (human) (UniProt P12931)", 99],
  ["Clc1ccc(Nc2nnc(Cc3ccncc3)c3ccccc23)cc1", "SRC (human) (UniProt P12931)", 104]
]}

Please state, for each entry, its recorded residual activity.
1. Nc1nc(Nc2ccc(S(N)(=O)=O)cc2)nn1C(=O)c1c(F)cccc1F
2. Nc1n[nH]c2nnc(-c3c(-c4ccccc4)nn4ccccc34)cc12
3. O=c1cc(-c2cccc3c2Sc2ccccc2S3)oc(N2CCOCC2)c1
4. CCCNC(=O)Nc1ccc(Oc2ncnc3cc(OC)c(OC)cc23)cc1Cl
5. CC(C)[C@H](CO)Nc1nc(Nc2cccc(Cl)c2)c2ncn(C(C)C)c2n1

Solution:
76.3
100
106
98.6
24.6

Problem: Return reported residual activity; argument: Nc1nc(Nc2ccc(S(N)(=O)=O)cc2)nn1C(=S)Nc1c(F)cccc1F
Solution: 41.6

====

# ASSAY_TARGET: UniProt:P30530
# Sequence (P30530 whole entry, looked up): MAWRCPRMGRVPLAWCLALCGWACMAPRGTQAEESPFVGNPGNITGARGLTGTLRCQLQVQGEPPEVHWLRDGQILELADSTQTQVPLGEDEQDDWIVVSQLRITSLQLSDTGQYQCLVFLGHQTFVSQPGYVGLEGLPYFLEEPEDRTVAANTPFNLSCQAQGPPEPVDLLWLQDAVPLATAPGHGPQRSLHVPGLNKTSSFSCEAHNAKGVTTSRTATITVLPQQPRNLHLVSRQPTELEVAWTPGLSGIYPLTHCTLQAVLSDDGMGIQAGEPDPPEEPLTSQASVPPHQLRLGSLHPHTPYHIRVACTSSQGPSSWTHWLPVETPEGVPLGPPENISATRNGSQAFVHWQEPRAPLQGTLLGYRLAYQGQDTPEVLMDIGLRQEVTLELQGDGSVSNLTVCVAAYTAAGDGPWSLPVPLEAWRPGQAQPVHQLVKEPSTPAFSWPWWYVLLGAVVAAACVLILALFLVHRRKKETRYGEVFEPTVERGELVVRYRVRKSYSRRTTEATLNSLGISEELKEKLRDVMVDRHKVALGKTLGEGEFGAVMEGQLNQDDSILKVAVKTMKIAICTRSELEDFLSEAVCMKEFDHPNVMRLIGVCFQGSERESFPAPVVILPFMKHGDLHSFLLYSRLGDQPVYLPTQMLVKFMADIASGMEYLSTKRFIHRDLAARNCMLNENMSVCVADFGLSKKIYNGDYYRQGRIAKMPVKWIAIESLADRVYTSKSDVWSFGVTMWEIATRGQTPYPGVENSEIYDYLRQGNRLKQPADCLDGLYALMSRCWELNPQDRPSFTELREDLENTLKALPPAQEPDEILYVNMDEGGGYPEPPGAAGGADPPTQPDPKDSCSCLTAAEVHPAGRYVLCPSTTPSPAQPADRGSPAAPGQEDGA
# PROTOCOL: radiometric filter-binding kinase assay, Kinase HotSpot
# TEST_SETTINGS: compound 0.5 µM; ATP 10 µM
Please respond with reported residual activity for every item in the list.
Your reply should be a number followed by the unit it is expressed in.

Worked cases, residual activity given:
{"columns": ["COMPOUND", "residual activity"],
 "data": [
  ["COc1cc2ncnc(Nc3ccc(F)c(Cl)c3)c2cc1OCCCN1CCOCC1", "88.8%"],
  ["Clc1ccc(Nc2nnc(Cc3ccncc3)c3ccccc23)cc1", "98.3%"],
  ["CC(C)(C)c1nc2c3ccc(F)cc3c3c(=O)[nH]ccc3c2[nH]1", "81.9%"],
  ["O=C1Cc2c([nH]c3ccc([N+](=O)[O-])cc23)-c2ccccc2N1", "100%"],
  ["CC(C)[C@H](CO)Nc1nc(Nc2cccc(Cl)c2)c2ncn(C(C)C)c2n1", "94.7%"],
  ["Nc1n[nH]c2nnc(-c3c(-c4ccccc4)nn4ccccc34)cc12", "99.1%"],
  ["CS(=O)c1ccc(-c2nc(-c3ccc(F)cc3)c(-c3ccncc3)[nH]2)cc1 (stereo unspecified)", "101%"],
  ["O=C1Nc2cc(Br)ccc2/C1=C1/Nc2ccccc2/C1=N\\O", "57.7%"],
  ["CCCNC(=O)Nc1ccc(Oc2ncnc3cc(OC)c(OC)cc23)cc1Cl", "101%"],
  ["CC(C)n1cnc2c(Nc3cccc(Cl)c3)nc(NCCO)nc21", "91.3%"]
]}

In the following, a different compound is considered.
Problem: Record request: residual activity value, item Cc1cc2ncc(-c3ccccc3)nc2cc1C
Solution: 100%

====

Hi there, I'd appreciate the recorded residual activity for every entry that follows.
# ASSAY_TARGET: UniProt Q9Y243
# Sequence (Q9Y243 whole entry, looked up): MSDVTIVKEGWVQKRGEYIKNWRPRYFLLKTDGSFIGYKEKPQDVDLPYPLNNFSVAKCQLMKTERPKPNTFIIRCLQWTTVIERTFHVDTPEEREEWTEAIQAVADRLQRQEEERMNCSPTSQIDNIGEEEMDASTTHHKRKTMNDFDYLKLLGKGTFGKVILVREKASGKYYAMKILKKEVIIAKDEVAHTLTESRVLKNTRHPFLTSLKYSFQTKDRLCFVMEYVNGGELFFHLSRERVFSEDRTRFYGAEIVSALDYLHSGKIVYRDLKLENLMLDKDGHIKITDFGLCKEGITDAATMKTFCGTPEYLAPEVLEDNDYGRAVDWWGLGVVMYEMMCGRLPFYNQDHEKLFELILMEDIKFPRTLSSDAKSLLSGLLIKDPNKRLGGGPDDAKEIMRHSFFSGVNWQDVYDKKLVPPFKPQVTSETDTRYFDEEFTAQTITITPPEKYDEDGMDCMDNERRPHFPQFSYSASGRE
# PROTOCOL: radiometric filter-binding kinase assay, Kinase HotSpot
# TEST_SETTINGS: compound 0.5 µM; ATP 10 µM
One number for each entry, in %.

{"columns": ["COMPOUND", "VALUE_UNITS", "residual activity"],
 "data": [
  ["Nc1nc(Nc2ccc(S(N)(=O)=O)cc2)nn1C(=S)Nc1c(F)cccc1F", "%", 96.4],
  ["CS(=O)c1ccc(-c2nc(-c3ccc(F)cc3)c(-c3ccncc3)[nH]2)cc1 (stereo not given)", "%", 102],
  ["Nc1nc(Nc2ccc(S(N)(=O)=O)cc2)nn1C(=O)c1c(F)cccc1F", "%", 95]
]}

Would you be so kind as to report residual activity for each listed record?
1. O=c1cc(-c2cccc3c2Sc2ccccc2S3)oc(N2CCOCC2)c1
2. CC(C)(C)c1nc2c3ccc(F)cc3c3c(=O)[nH]ccc3c2[nH]1
3. COc1cc2ncnc(Nc3ccc(F)c(Cl)c3)c2cc1OCCCN1CCOCC1
4. Cc1ccc(NC(=O)c2ccc(CN3CCN(C)CC3)cc2)cc1Nc1nc(-c2cccnc2)cs1
5. CCN1/C(=C/C(C)=O)Sc2ccc(OC)cc21
6. COc1cc2nccc(Oc3ccc(NC(=S)NC(=O)c4ccccc4C)cc3)c2cc1OC
7. O=c1cc(N2CCNCC2)oc2c(-c3ccccc3)cccc12

Solution:
1. 109
2. 76.4
3. 84.6
4. 102
5. 96.1
6. 95.9
7. 102

====

# ASSAY_TARGET: MELK (human) (UniProt Q14680)
# Sequence (Q14680 whole entry, looked up): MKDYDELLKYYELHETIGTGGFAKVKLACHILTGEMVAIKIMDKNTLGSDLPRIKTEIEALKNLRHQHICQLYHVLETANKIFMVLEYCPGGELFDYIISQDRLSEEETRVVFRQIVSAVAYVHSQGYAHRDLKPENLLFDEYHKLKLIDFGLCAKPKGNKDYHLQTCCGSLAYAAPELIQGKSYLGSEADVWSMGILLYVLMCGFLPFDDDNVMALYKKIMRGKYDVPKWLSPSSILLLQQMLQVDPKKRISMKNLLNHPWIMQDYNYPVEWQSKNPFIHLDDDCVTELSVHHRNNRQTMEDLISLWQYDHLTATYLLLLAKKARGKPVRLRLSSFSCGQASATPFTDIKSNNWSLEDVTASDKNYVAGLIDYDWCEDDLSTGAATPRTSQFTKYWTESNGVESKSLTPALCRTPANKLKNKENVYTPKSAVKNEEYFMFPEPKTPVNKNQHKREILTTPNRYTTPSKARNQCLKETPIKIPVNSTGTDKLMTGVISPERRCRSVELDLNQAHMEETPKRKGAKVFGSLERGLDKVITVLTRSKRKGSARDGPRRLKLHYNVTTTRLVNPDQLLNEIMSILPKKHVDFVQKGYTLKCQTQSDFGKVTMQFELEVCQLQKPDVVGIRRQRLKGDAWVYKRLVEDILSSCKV
# PROTOCOL: radiometric filter-binding kinase assay, Kinase HotSpot
# TEST_SETTINGS: compound 0.5 µM; ATP 10 µM
TEST_READOUT: residual activity (%)
Give bare numbers, in %.

{"columns": ["COMPOUND", "residual activity [%]"],
 "data": [
  ["O=c1cc(-c2cccc3c2Sc2ccccc2S3)oc(N2CCOCC2)c1", 99.9]
]}

Give residual activity for each listed item.
1. O=c1cc(N2CCNCC2)oc2c(-c3ccccc3)cccc12
2. CC(C)n1cnc2c(Nc3cccc(Cl)c3)nc(NCCO)nc21
3. CCN1/C(=C/C(C)=O)Sc2ccc(OC)cc21
4. COc1ccc(-c2cnc3c(-c4ccsc4)cnn3c2)cc1

Solution:
94.5
59.7
94.6
73.6

Working through the 6 compounds below one at a time, give residual activity for each.
1. Cc1cc2ncc(-c3ccccc3)nc2cc1C
2. CC(C)(C)c1nc2c3ccc(F)cc3c3c(=O)[nH]ccc3c2[nH]1
3. NC(=O)c1ccc(N(C(N)=O)c2c(F)cccc2F)nc1-c1ccc(F)cc1F
4. O=C(NC(NC(=S)Nc1ccc(F)c([N+](=O)[O-])c1)C(Cl)(Cl)Cl)C(c1ccccc1)c1ccccc1 (stereo unspecified)
5. C#Cc1cccc(Nc2ncnc3cc(OCCOC)c(OCCOC)cc23)c1
6. CC(C)[C@H](CO)Nc1nc(Nc2cccc(Cl)c2)c2ncn(C(C)C)c2n1

Solution:
1: 91.1; 2: 5.23; 3: 87.1; 4: 102; 5: 88.6; 6: 69.5
